SYSTEM_UNDER_TEST: recombinant human serotonin transporter (Homo sapiens)
Construct: expressed in transfected cells
Sequence (P31645 whole entry): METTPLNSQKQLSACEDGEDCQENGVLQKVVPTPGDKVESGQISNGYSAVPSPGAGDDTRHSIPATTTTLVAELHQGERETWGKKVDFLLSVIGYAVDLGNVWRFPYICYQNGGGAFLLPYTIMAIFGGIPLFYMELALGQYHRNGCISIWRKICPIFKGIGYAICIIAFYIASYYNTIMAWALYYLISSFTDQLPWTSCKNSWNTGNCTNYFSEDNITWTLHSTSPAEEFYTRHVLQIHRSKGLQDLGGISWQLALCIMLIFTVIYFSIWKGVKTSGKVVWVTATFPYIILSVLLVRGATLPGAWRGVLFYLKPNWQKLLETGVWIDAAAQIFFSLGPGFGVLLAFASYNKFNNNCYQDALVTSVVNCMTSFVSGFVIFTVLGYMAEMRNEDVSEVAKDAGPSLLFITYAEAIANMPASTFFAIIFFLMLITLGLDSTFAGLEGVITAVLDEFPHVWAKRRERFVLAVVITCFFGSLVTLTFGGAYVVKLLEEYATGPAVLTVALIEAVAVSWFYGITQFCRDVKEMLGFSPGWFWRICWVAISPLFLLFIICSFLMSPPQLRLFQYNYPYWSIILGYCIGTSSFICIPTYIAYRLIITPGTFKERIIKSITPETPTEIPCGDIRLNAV
TEST_METHOD_NOTES: biochemical
Format: binding
CONDITION_CONTEXT: SEROTONIN [I125]-RTI-55 BINDING (Ki)
ASSAY_READOUT: Ki (µM)
Give bare numbers, in µM.

See these solved cases before continuing.
MOLECULE: CC(C)CC(c1ccc(C(C)C)cc1)C1CCCCN1 (racemic) [P]
SYSTEM_UNDER_TEST: recombinant human serotonin transporter (Homo sapiens)
Ki [µM]: 3.3

MOLECULE: CC(C)CC(c1ccc(C(C)C)cc1)C1CCCCN1 (racemic) [PP]
SYSTEM_UNDER_TEST: recombinant human serotonin transporter (Homo sapiens)
Ki [µM]: 1.7

MOLECULE: CCC(c1ccc(Cl)cc1)C1CCCCN1 (single isomer, unassigned) [B]
SYSTEM_UNDER_TEST: recombinant human serotonin transporter (Homo sapiens)
Ki [µM]: 7.8

Prompt: Return reported Ki; argument: Clc1ccc(C(Cc2ccccc2)C2CCCCN2)cc1 (single isomer, unassigned) [J]
Completion: 1.1

====

SYSTEM_UNDER_TEST: recombinant human dopamine transporter (Homo sapiens, UniProt Q01959)
Construct: expressed in transfected cells
Sequence (Q01959 whole entry): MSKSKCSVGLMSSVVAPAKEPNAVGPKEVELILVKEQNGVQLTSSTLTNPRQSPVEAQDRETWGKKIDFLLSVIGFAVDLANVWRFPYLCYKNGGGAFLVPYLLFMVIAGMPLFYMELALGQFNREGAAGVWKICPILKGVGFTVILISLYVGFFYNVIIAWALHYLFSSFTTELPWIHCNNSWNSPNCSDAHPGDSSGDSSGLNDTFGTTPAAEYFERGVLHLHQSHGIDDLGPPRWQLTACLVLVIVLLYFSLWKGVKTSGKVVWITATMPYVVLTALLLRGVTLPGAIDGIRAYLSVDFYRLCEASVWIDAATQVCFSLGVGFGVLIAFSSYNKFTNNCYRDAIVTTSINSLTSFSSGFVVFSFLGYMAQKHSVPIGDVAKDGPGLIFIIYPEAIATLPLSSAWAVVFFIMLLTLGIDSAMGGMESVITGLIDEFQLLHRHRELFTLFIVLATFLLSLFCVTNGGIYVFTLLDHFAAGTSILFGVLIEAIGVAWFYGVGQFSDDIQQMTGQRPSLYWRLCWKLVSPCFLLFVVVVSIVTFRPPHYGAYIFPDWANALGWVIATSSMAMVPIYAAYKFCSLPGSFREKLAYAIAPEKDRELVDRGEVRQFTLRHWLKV
TEST_METHOD_NOTES: dopamine reuptake inhibition in HEK 293 cells
Assay type: cell-based
CONDITION_CONTEXT: ratio of NE/DA reuptake IC50; selectivity for dopamine over norepinephrine transporter
ASSAY_READOUT: NE/DA REUPTAKE
One number for each entry.

See these solved cases before continuing.
COMPOUND: COC(=O)C(c1ccc(Cl)c(Cl)c1)C1CCCCN1 (single isomer, unassigned) [M]
NE/DA REUPTAKE: 0.43
//
COMPOUND: CC(C)C(c1ccc(Cl)cc1)C1CCCCN1 (single isomer, unassigned) [C]
NE/DA REUPTAKE: 1.6
//
COMPOUND: COC(=O)C(c1ccc(Cl)cc1)C1CCCCN1 (single isomer, unassigned) [A]
NE/DA REUPTAKE: 1.0
//
COMPOUND: Clc1ccc(C(Cc2ccccc2)C2CCCCN2)cc1 (single isomer, unassigned) [J]
NE/DA REUPTAKE: 7.8
//
COMPOUND: CC(C)(C)CC(c1ccc(Cl)cc1)C1CCCCN1 (racemic) [F]
NE/DA REUPTAKE: 8.7
//
COMPOUND: Clc1ccc(C(CC2CCCCC2)C2CCCCN2)cc1 (single isomer, unassigned) [H]
NE/DA REUPTAKE: 4.1

Kindly give each listed record's NE/DA REUPTAKE.
1. CCCC(c1ccc(Cl)cc1)C1CCCCN1 (racemic) [Sample E]
2. CCC(c1ccc(Cl)cc1)C1CCCCN1 (single isomer, unassigned) [B]
3. Clc1ccc(C(CCc2ccccc2)C2CCCCN2)cc1 (single isomer, unassigned) [I]
4. CC(C)CC(c1ccc(Cl)c(Cl)c1)C1CCCCN1C (single isomer, unassigned) [O]
5. CC(C)CC(c1ccc(C(C)C)cc1)C1CCCCN1 (racemic) [P]

Completion:
6.8
9.1
4.3
2.2
1.8

Prompt: Return reported NE/DA REUPTAKE; argument: CC(C)CC(c1ccc(Cl)c(Cl)c1)C1CCCCN1 (racemic) [Sample N]
Completion: 1.6

====

Would you kindly list pIC50 for each of these molecules?
SYSTEM_UNDER_TEST: recombinant human dopamine transporter (Homo sapiens, UniProt Q01959)
Construct: expressed in transfected cells
TEST_METHOD_NOTES: dopamine reuptake inhibition in HEK 293 cells
Format: cell-based
CONDITION_CONTEXT: RR/SS racemates table; HEK 293 cells; read-out: DOPAMINE DA REUPTAKE (IC50)
Give bare numbers, as −log10 of the molar value.

Kindly give each listed record's pIC50.
1. CC(C)CC(c1ccc(Cl)cc1)C1CCCCN1 (racemic)
2. CC(C)CC(c1ccc(Cl)c(Cl)c1)C1CCCCN1 (racemic)
3. Clc1ccc(C(CC2CCCC2)C2CCCCN2)cc1 (racemic)
4. CCCC(c1ccc(Cl)cc1)C1CCCCN1 (racemic)

Completion:
1: 8.07; 2: 8.26; 3: 7.68; 4: 8.13
